# assay_info: Repeated dose 14-day toxicokinetics (TK) study
# Type: in vivo, Sprague–Dawley rats
# conditions_used: female, Sprague-Dawley, rat, blood, po, 100 mg/kg, female, day 1, 100 mg/kg bw
quantity_measured: half-life (h)
Quick note: give the figure in h, leave out the unit.

## Input Data request, read-out half-life, for O=C(NO)c1ccc(Cn2cc(-c3ccc(CN4CCCC4)cc3)nn2)cc1
## Output 3.21

----------
# assay_info: Repeated dose 14-day toxicokinetics (TK) study
# Assay type: in vivo, Sprague–Dawley rats
# conditions_used: male, Sprague-Dawley, rat, blood, po, 100 mg/kg, male, day 1, 100 mg/kg bw
quantity_measured: half-life (h)
Quick note: give the figure in h, leave out the unit.

## Input Data request, read-out half-life, for O=C(NO)c1ccc(Cn2cc(-c3ccc(CN4CCCC4)cc3)nn2)cc1
## Output 5.72

----------
# assay_info: Repeated dose 14-day toxicokinetics (TK) study
# Assay type: in vivo, Sprague–Dawley rats
# conditions_used: male, Sprague-Dawley, rat, in vivo, po, 100 mg/kg, male, day 14, 100 mg/kg bw
quantity_measured: Tmax (min)
Quick note: give the figure in min, leave out the unit.

## Input Data request, read-out Tmax, for O=C(NO)c1ccc(Cn2cc(-c3ccc(CN4CCCC4)cc3)nn2)cc1
## Output 11.4

----------
# Test system: Plasmodium falciparum 3D7
# assay_info: Plasmodium falciparum asexual blood-stage (ABS) assay
# Type: cell-based
# conditions_used: read-out: Anti-malarial IC50
quantity_measured: IC50 (nM)
Quick note: give the figure in nM, leave out the unit.

## Input Data request, read-out IC50, for O=C(/C=C/c1ccc(Cn2cc(-c3ccc(F)cc3)nn2)cc1)NO [FNDR-20056]
## Output 1150

## Input Data request, read-out IC50, for O=C(/C=C/c1ccc(Cn2cc(-c3ccc(CN4CCCC4)cc3)nn2)cc1)NO [FNDR-20122]
## Output 650

----------
# assay_info: Single dose pharmacokinetics in Balb/C mice
# Type: in vivo
# conditions_used: male, mouse, plasma; normal Balb/C mice, oral, 50 mg/Kg
quantity_measured: AUC(0-t) (µg·h/mL)
Quick note: give the figure in µg·h/mL, leave out the unit.

## Input Data request, read-out AUC(0-t), for O=C(NO)c1ccc(Cn2cc(-c3ccc(CN4CCCC4)cc3)nn2)cc1 [FNDR-20123]
## Output 0.327

----------
# assay_info: Single dose pharmacokinetics in Balb/C mice
# Type: in vivo
# conditions_used: male, mouse, plasma, sc; normal Balb/C mice, subcutaneous, 50 mg/Kg
# Protocol: Female […] mice (n = 3) aged 7-8 weeks and weighing around 20 to 22 g were used for experimentation after a minimum 7 days of acclimation. Male BALB/c mice (n = 3) aged 8-10 weeks and weighing around 20 to 22 g were also used for experimentation after a minimum 7 days of acclimation. […] Feed was offered 2 h post-dose. […]
quantity_measured: Cmax (ng/mL)
Quick note: give the figure in ng/mL, leave out the unit.

## Input Data request, read-out Cmax, for O=C(NO)c1ccc(Cn2cc(-c3ccc(CN4CCCC4)cc3)nn2)cc1
## Output 14000

----------
# Tested on: Plasmodium falciparum 3D7
# assay_info: Plasmodium falciparum asexual blood-stage (ABS) assay
# Type: cell-based
# conditions_used: read-out: Anti-malarial IC50
quantity_measured: IC50 (nM)
Quick note: give the figure in nM, leave out the unit.

## Input Data request, read-out IC50, for O=C(NO)c1ccc(CNC(=O)c2ccc3c(c2)S(=O)(=O)N(c2ccccc2)CCO3)cc1 [FNDR-20124]
## Output 1170

## Input Data request, read-out IC50, for O=C(NO)c1ccc(CNC(=O)c2ccc3c(c2)S(=O)(=O)N(c2ccccc2)CCO3)cc1 [FNDR-20055]
## Output 2400

## Input Data request, read-out IC50, for O=C(/C=C/c1ccc(Cn2cc(-c3ccc(F)cc3)nn2)cc1)NO [FNDR-20125]
## Output 550

## Input Data request, read-out IC50, for Nc1ccccc1NC(=O)/C=C/c1ccc(Cn2cc(-c3ccccc3)nn2)cc1 [FNDR-20060]
## Output 3890

----------
# assay_info: Single dose pharmacokinetics in Balb/C mice
# Type: in vivo
# conditions_used: male, BALB/c, mouse, plasma, sc, 50 mg/kg, normal Balb/C mice, subcutaneous
quantity_measured: half-life (min)
Quick note: give the figure in min, leave out the unit.

## Input Data request, read-out half-life, for O=C(NO)c1ccc(Cn2cc(-c3ccc(CN4CCCC4)cc3)nn2)cc1
## Output 553

----------
# assay_info: Repeated dose 14-day toxicokinetics (TK) study
# Format: in vivo, Sprague–Dawley rats
# conditions_used: female, Sprague-Dawley, rat, in vivo, po, 100 mg/kg, female, day 14, 100 mg/kg bw
quantity_measured: AUC(0-inf) (ng·h/mL)
Quick note: give the figure in ng·h/mL, leave out the unit.

## Input Data request, read-out AUC(0-inf), for O=C(NO)c1ccc(Cn2cc(-c3ccc(CN4CCCC4)cc3)nn2)cc1 [FNDR-20123]
## Output 573

----------
# assay_info: Single dose pharmacokinetics in Balb/C mice
# Format: in vivo
# conditions_used: male, mouse, plasma, sc; normal Balb/C mice, subcutaneous, 50 mg/Kg
# Experimental: Female […] mice (n = 3) aged 7-8 weeks and weighing around 20 to 22 g were used for experimentation after a minimum 7 days of acclimation. Male BALB/c mice (n = 3) aged 8-10 weeks and weighing around 20 to 22 g were also used for experimentation after a minimum 7 days of acclimation. […] Feed was offered 2 h post-dose. […]
quantity_measured: AUC(0-t)

## Input Data request, read-out AUC(0-t), for O=C(NO)c1ccc(Cn2cc(-c3ccc(CN4CCCC4)cc3)nn2)cc1
## Output 11000 ng·h/mL

----------
# Tested on: female gametocytes
# assay_info: Female gametocyte functional viability assay
# Type: cell-based
# conditions_used: Plasmodium falciparum
quantity_measured: IC50

## Input Enter reported IC50 observed with female gametocytes for O=C(NO)c1ccc(Cn2cc(-c3ccc(CN4CCCC4)cc3)nn2)cc1
## Output > 5 µM

----------
# assay_info: Repeated dose 14-day toxicokinetics (TK) study
# Format: in vivo, Sprague–Dawley rats
# conditions_used: both sexes, Sprague-Dawley, rat, in vivo, po, 100 mg/kg, rats, 100 mg/kg body weight
quantity_measured: Cmax

## Input Data request, read-out Cmax, for O=C(NO)c1ccc(Cn2cc(-c3ccc(CN4CCCC4)cc3)nn2)cc1
## Output 1100 nM

----------
# assay_info: Single dose pharmacokinetics in Balb/C mice
# Assay type: in vivo
# conditions_used: male, mouse, plasma, im; normal Balb/C mice, intramuscular, 50 mg/Kg
quantity_measured: AUC(0-t) (ng·h/mL)
Quick note: give the figure in ng·h/mL, leave out the unit.

## Input Data request, read-out AUC(0-t), for O=C(NO)c1ccc(Cn2cc(-c3ccc(CN4CCCC4)cc3)nn2)cc1
## Output 7220

----------
# assay_info: Repeated dose 14-day toxicokinetics (TK) study
# Assay type: in vivo, Sprague–Dawley rats
# conditions_used: male, Sprague-Dawley, rat, blood, po, 100 mg/kg, male, day 14, 100 mg/kg bw
quantity_measured: half-life

## Input Data request, read-out half-life, for O=C(NO)c1ccc(Cn2cc(-c3ccc(CN4CCCC4)cc3)nn2)cc1
## Output 2.3 h

----------
# assay_info: Microsomal stability
# Type: in vitro ADME, rat
# conditions_used: rat, liver microsomes, RLM, Test Conc. 10 µM; read-out: Microsomal stability (% remaining at 120 min)
quantity_measured: remaining at 2 h, 10 µM

## Input Data request, read-out remaining at 2 h, 10 µM, for O=C(NO)c1ccc(Cn2cc(-c3ccc(CN4CCCC4)cc3)nn2)cc1
## Output > 75%

----------
# assay_info: Single dose pharmacokinetics in Balb/C mice
# Assay type: in vivo
# conditions_used: male, mouse, plasma, sc; normal Balb/C mice, subcutaneous, 50 mg/Kg
quantity_measured: Tmax (min)
Quick note: give the figure in min, leave out the unit.

## Input Data request, read-out Tmax, for O=C(NO)c1ccc(Cn2cc(-c3ccc(CN4CCCC4)cc3)nn2)cc1
## Output 4.8

----------
# assay_info: in vitro
# Type: in vitro ADME
# conditions_used: dog, plasma
quantity_measured: remaining at 4 h
Please answer using a numeric value trailed by its unit.

## Input Data request, read-out remaining at 4 h, for O=C(NO)c1ccc(Cn2cc(-c3ccc(CN4CCCC4)cc3)nn2)cc1
## Output 97.7%

----------
# assay_info: Repeated dose 14-day toxicokinetics (TK) study
# Format: in vivo, Sprague–Dawley rats
# conditions_used: male, Sprague-Dawley, rat, in vivo, po, 100 mg/kg, male, day 1, 100 mg/kg bw
quantity_measured: AUC(0-t)
Please answer using a numeric value trailed by its unit.

## Input Data request, read-out AUC(0-t), for O=C(NO)c1ccc(Cn2cc(-c3ccc(CN4CCCC4)cc3)nn2)cc1
## Output 712 ng·h/mL

----------
# target_of_assay: human HDAC2 (Homo sapiens)
# Sequence (Q92769 whole entry, canonical isoform): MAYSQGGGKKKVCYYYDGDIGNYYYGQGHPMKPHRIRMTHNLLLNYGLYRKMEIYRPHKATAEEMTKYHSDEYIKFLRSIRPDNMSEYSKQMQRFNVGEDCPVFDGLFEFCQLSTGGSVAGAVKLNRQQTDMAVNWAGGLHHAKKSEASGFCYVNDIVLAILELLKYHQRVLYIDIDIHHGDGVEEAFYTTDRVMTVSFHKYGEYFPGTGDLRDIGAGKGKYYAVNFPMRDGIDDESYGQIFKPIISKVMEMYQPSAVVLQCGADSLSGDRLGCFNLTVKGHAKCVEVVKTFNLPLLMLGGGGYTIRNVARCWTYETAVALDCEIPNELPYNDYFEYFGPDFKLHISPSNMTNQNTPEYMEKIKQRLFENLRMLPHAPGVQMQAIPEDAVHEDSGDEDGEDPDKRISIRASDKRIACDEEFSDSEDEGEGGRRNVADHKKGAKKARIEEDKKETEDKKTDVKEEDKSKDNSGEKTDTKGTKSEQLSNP
# assay_info: Isoform selectivity, recombinant HDAC isoforms
# conditions_used: single experiment assays
quantity_measured: IC50
Please answer using a numeric value trailed by its unit.

## Input Enter reported IC50 observed with human HDAC2 (Homo sapiens) for O=C(NO)c1ccc(Cn2cc(-c3ccc(CN4CCCC4)cc3)nn2)cc1 [FNDR-20123]
## Output 29 nM
